# Target Desc: Glutaminase liver isoform, mitochondrial (Homo sapiens, UniProt Q9UI32)
# Sequence (Q9UI32 whole entry, the tested form may be a part, canonical isoform): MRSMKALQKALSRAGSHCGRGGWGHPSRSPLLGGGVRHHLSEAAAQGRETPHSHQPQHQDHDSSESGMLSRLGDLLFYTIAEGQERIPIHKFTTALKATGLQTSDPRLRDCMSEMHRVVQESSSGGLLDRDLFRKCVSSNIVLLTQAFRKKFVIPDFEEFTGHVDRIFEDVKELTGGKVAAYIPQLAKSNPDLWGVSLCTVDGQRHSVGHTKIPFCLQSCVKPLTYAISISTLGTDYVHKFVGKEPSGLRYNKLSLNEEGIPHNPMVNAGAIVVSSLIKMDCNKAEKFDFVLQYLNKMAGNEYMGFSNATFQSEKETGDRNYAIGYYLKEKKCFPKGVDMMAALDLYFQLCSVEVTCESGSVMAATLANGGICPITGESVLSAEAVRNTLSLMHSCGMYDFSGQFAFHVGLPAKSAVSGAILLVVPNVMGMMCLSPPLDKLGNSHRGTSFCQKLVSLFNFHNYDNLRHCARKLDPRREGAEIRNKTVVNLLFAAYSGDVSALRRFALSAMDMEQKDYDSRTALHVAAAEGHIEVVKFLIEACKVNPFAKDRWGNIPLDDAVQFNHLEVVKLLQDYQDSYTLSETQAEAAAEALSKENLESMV
# Assay Text: Inhibition of recombinant human His-tagged GAB (P56 to V602 residues) expressed in Escherichia coli C41(DE3)pLysS using glutamine as substrate preincubated for 10 mins followed by substrate addition measured after 60 mins by glutamate dehydrogenase coupled enzyme assay
Exam item: assign met to entries whose IC50 is below 1 µM and not met to entries at or above 1 µM. Note that a value of exactly 1 µM receives not met.

Smiles Code: O=C1NC(=O)/C(=C/c2ccc(-c3ccc(-n4c(-c5ccccc5)cc(/C=C5\SC(=O)NC5=O)c4-c4ccccc4)cc3)cc2)S1
Classification: met
--
Smiles Code: O=C1NC(=O)/C(=C/c2cc(-c3ccccc3)n(-c3ccc(Br)cc3)c2-c2ccccc2)S1
Classification: not met
--
Smiles Code: COc1cc(-n2c(-c3cccs3)cc(/C=C3\SC(=O)NC3=O)c2-c2cccs2)ccc1-c1ccc(/C=C2\SC(=O)NC2=O)cc1
Classification: met
--
Smiles Code: Cc1cc(/C=C2\SC(=O)NC2=O)c(C)n1-c1ccc(Br)cc1
Classification: not met
--
Smiles Code: O=C1NC(=O)/C(=C/c2cc(-c3cccs3)n(-c3ccc(Br)cc3)c2-c2cccs2)S1
Classification: not met
--
Smiles Code: CCc1cc(-c2ccc(-n3c(-c4ccccc4)cc(/C=C4\SC(=O)NC4=O)c3-c3ccccc3)cc2)ccc1/C=C1\SC(=O)NC1=O
Classification: not met
--
Smiles Code: CCc1cc(-c2ccc(-n3c(C)cc(/C=C4\SC(=O)NC4=O)c3C)cc2OC)ccc1/C=C1\SC(=O)NC1=O
Classification: not met
--
Smiles Code: Cc1cc(/C=C2\SC(=O)NC2=O)c(C)n1-c1ccc(-c2ccc(/C=C3\SC(=O)NC3=O)cc2)cc1
Classification: not met
--
Smiles Code: Cc1cc(/C=C2\SC(=O)NC2=O)c(C)n1-c1ccc(-c2ccc(/C=C3\SC(=O)NC3=O)c(Cl)c2)cc1
Classification: not met
--
Smiles Code: CCc1cc(-c2ccc(-n3c(-c4cccs4)cc(/C=C4\SC(=O)NC4=O)c3-c3cccs3)cc2)ccc1/C=C1\SC(=O)NC1=O
Classification: not met
--
Smiles Code: CCc1cc(-c2ccc(-n3c(C)cc(/C=C4\SC(=O)NC4=O)c3C)cc2)ccc1/C=C1\SC(=O)NC1=O
Classification: not met
--
Smiles Code: COc1cc(-n2c(C)cc(/C=C3\SC(=O)NC3=O)c2C)ccc1-c1ccc(/C=C2\SC(=O)NC2=O)cc1
Classification: not met
--
Smiles Code: COc1cc(-n2c(-c3ccccc3)cc(/C=C3\SC(=O)NC3=O)c2-c2ccccc2)ccc1-c1ccc(/C=C2\SC(=O)NC2=O)cc1
Classification: met
--
Smiles Code: CCc1cc(-c2ccc(-n3c(C)cc(/C=C4\SC(=O)NC4=O)c3C)cc2C#N)ccc1/C=C1\SC(=O)NC1=O
Classification: not met
--
Smiles Code: Cc1cc(/C=C2\SC(=O)NC2=O)c(C)n1-c1ccc(-c2ccc(/C=C3\SC(=O)NC3=O)cc2)c(O)c1
Classification: not met
--
Smiles Code: O=C1NC(=O)/C(=C/c2ccc(-c3ccc(-n4c(-c5cccs5)cc(/C=C5\SC(=O)NC5=O)c4-c4cccs4)cc3)cc2)S1
Classification: met

# credit: ChEMBL document CHEMBL4011632
